These measurements were taken from PubChem BioAssay AID179.

# Tested on: CEM cells HIV-1 protection, formazan growth assay
# Test Summary: NCI AIDS Antiviral Assay
# Measurement Parameters: measured here: growth of uninfected CEM cells
# Procedure: The ability of compounds to protect human CEM cells from HIV-1 infection is measured as a screen for new compounds capable of inhibiting the HIV virus. Five concentrations of drug were tested on uninfected and infected cells and cell growth was measured using a soluble formazan assay. […] Compounds that provided at least 50% protection were retested. Compounds that provided at least 50% protection on retest were listed as moderately active. […]
Recorded Metric: pIC50
In textbook form, pIC50 equals minus log to base ten of the concentration in mol/L.

In plain terms, `O=c1[nH]c(Nc2ccc(Cl)c(C(F)(F)F)c2)nc2nc[nH]c12` has a documented pIC50 of 4.05

Briefly, pIC50 measured for CC1(C)C2CCC1(C)[C@H](O)[C@H]2Nc1cc(C(F)(F)F)cc(C(F)(F)F)c1 (stereo partly specified) : 6.29

Entry `NC(=O)C(=CNC(=S)c1cccnc1)C(N)=O` , pIC50 reported as 4.13

For this molecule ( CC1Sc2ccccc2-c2[nH]c3ccccc3c21 (stereo unspecified) ), measured pIC50 is 4.99

Sure, the documented pIC50 for `COc1ccc(OC)c(NCC(=O)Nn2cnc3ccc(S(=O)(=O)Nc4cc(OC)ccc4OC)cc3c2=O)c1` is 4.47

In plain terms, `Nc1cc(Cl)cc(Cl)c1O` has a documented pIC50 of 3.92

Briefly, pIC50 measured for `NC(=O)c1cc(O)c(O)c(O)c1` : 4.77

Sample `CC(C)CCc1n[nH]c(=O)n1/N=C\c1ccccc1` ; pIC50 observed: 4.18
